Test system: Pancreas
Experiment: Biodistribution in ddY mouse pancreas at 0.2 to 0.4 uCi, iv after 2 mins
Type: ADME, organism-based
Details: in vivo
quantity-measured: Drug uptake (% ID/g)

| record-smiles | value-unit | quantitative-result |
| --- | --- | --- |
| CNc1ccc(-c2cc3cc([125I])ccc3[nH]2)cc1 | % ID/g | 2.31 |
| CN(C)c1ccc(-c2cc3cc([125I])ccc3[nH]2)cc1 | % ID/g | 5.21 |
| OCCOc1ccc(-c2cc3cc([125I])ccc3[nH]2)cc1 | % ID/g | 5.55 |
| COc1ccc(-c2cc3cc([125I])ccc3[nH]2)cc1 | % ID/g | 4.54 |
